Kindly state log10 Kd for each of the entries shown.
# Target under test: mutant MGL (Homo sapiens, UniProt Q99685, L169S/L176S)
# Sequence (Q99685 whole entry L169S/L176S): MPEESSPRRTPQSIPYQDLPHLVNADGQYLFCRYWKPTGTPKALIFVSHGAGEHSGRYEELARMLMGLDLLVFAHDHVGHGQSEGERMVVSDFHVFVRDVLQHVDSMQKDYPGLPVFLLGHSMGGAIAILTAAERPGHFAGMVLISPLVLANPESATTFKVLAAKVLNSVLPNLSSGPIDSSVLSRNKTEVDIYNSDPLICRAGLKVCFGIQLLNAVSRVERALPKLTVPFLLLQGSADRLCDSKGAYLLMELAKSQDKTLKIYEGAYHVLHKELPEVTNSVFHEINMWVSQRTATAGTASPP
# Assay protocol: MGL ThermoFluor assay - mutant
# Type: binding
# Measurement setup: ThermoFluor, compound concentration measured by qNMR, read-out: MGL mutant ThermoFluor qKd (μM) (using qNMR conc.)
Plainly stated, the numbers are log10 of Kd given in µM.

`Cc1c(C(=O)N2CC(N3CCN(C(=O)c4cscn4)CC3)C2)sc2nc(C(F)(F)F)ccc12` yielded log10 Kd of -1.44

Query `O=C(c1nc2cc(-c3cccnc3F)ccc2[nH]1)N1CC(N2CCN(C(=O)c3nccs3)CC2)C1` yields log10 Kd of 0.86

# compound `Cc1cc(C(=O)N2CC(N3CCN(C(=O)c4nccs4)CC3)C2)sc1-c1ccc(F)cc1` ; its log10 Kd = -1.74

// log10 Kd lookup, compound = `Cc1cn(-c2ccccc2)c2ccc(C(=O)N3CC(N4CCN(C(=O)c5ccccc5)CC4)C3)cc12` , result: -1.59

Item: `O=C(c1nc2cc(-c3ccc(F)cc3)ccc2[nH]1)N1CC(N2CCN(C(=O)c3nccs3)CC2)C1` | log10 Kd: 0.64

Field log10 Kd (entry `O=C(c1ccc2nn(-c3cccc(C(F)(F)F)c3)cc2c1)N1CC(N2CCN(C(=O)c3nccs3)CC2)C1` ) reads -1.10

log10 Kd recorded for this compound, `O=C(c1ccc2nc(-c3ccc(F)c(F)c3)oc2c1)N1CC(N2CCN(C(=O)c3cscn3)CC2)C1` , is -0.62

According to the records, this compound `O=C(c1ccccc1)N1CCN(C2CN(C(=O)c3ccc4c(ccn4-c4cc(F)cc(F)c4)c3)C2)CC1` displays log10 Kd of -0.93

* * *

# Target under test: purified wild type MGL (wt-MGLL 6H-11-313) (Homo sapiens)
# Sequence (Q99685 whole entry): as the sequence (Q99685 whole entry L169S/L176S) above, with S169L, S176L counted along it
Exam item: assign condition met to entries whose IC50 is below 40 nM and condition not met to entries at or above 40 nM. Note that a value of exactly 40 nM receives condition not met.

Input: Report whether reported IC50 is lower than 40 nM (strictly) for O=C(c1ccc2c(c1)ncn2CC(F)(F)F)N1CC(N2CCN(C(=O)c3cscn3)CC2)C1 [Cpd 841]
Output: condition not met

Input: Report whether reported IC50 is lower than 40 nM (strictly) for O=C(c1ccc2nn(-c3cccc(OC(F)(F)F)c3)cc2c1)N1CC(N2CCN(C(=O)c3cscn3)CC2)C1 [Cpd 1422]
Output: condition met

Input: Confirm or reject: IC50 of O=C(c1cscn1)N1CCN(C2CN(C(=O)c3ccc(-c4ccccc4)cc3Cl)C2)CC1 [Cpd 1221] lies strictly below 40 nM
Output: condition not met

Input: Item O=C(c1ccc2cc(-c3ccccc3)[nH]c2c1)N1CC(N2CCN(C(=O)c3nccs3)CC2)C1 [Cpd 1333] : IC50 beneath 40 nM, strictly?
Output: condition met

Input: Lab note: IC50 threshold 40 nM. Does this compound come in strictly under it? O=C(c1nccs1)N1CCN(C2CN(C(=O)c3sc4cc(-c5ccc(C(F)(F)F)cc5)ccc4c3F)C2)CC1 [Cpd 1063]
Output: condition met

Input: Decide: IC50 of O=C(c1ccc(-n2nc3c(c2-c2ccc(Cl)cc2)CCCC3)cc1)N1CC(N2CCN(C(=O)c3nccs3)CC2)C1 [Cpd 1327] strictly below 40 nM?
Output: condition met

Input: Determine whether this compound shows IC50 lower than 40 nM (ties excluded): Cc1cccc(Nc2ccccc2C(=O)N2CC(N3CCN(C(=O)c4nccs4)CC3)C2)c1C [Cpd 744]
Output: condition not met

Input: Check if IC50 falls below 40 nM for O=C(c1cscn1)N1CCN(C2CN(C(=O)c3cc4ccc(C(F)(F)F)cc4s3)C2)CC1 [Cpd 337] .
Output: condition met

Input: Hello, is IC50 of the following compound strictly smaller than 40 nM? O=C(c1ccc(-c2cccc(C(F)(F)F)c2)cc1)N1CC(N2CCN(C(=O)c3cscn3)CC2)C1 [Cpd 229]
Output: condition met

Input: Is IC50 strictly under 40 nM for the entry O=C(c1cc2cc(C(F)(F)F)ccc2[nH]1)N1CCN(C2CN(C(=O)c3nccs3)C2)CC1 [Cpd 747] ?
Output: condition not met

Input: State whether 40 nM exceeds IC50 recorded for O=C(c1ccc2nc(-c3ccc(C(F)(F)F)cc3)oc2c1)N1CC(N2CCN(C(=O)c3nccs3)CC2)C1 [Cpd 314] .
Output: condition met

Input: Take the compound CC1(C)c2ccccc2-c2ccc(C(=O)N3CC(N4CCN(C(=O)c5nccs5)CC4)C3)cc21 [Cpd 952] and say whether its IC50 is less than 40 nM.
Output: condition met

Input: IC50 strictly < 40 nM for this compound? O=C(c1ccc[nH]1)N1CCN(C2CN(C(=O)c3cc4ccc(C(F)(F)F)nc4o3)C2)CC1 [Cpd 1446]
Output: condition not met

Input: hey, is IC50 for O=C(c1ccccc1)c1ccc(C(=O)N2CC(N3CCN(C(=O)c4nccs4)CC3)C2)cc1 [Cpd 1017] lower than 40 nM or not?
Output: condition met

Input: Please indicate whether the reported IC50 of Cc1c(C(=O)N2CC(N3CCN(C(=O)c4nccs4)CC3)C2)[nH]c2ccc(F)cc12 [Cpd 719] is strictly below 40 nM.
Output: condition not met

Input: Confirm or reject: IC50 of Cc1nn(Cc2ccc(Cl)cc2)c2sc(C(=O)N3CC(N4CCN(C(=O)c5nccs5)CC4)C3)cc12 [Cpd 1053] lies strictly below 40 nM
Output: condition met
